Source of measurements: PubChem BioAssay (NCI)

Assay: NCI Yeast Anticancer Drug Screen. Data for the bub3 strain (AID 167)
Settings: S. cerevisiae bub3 mutant strain, at 50.0 µM, hits give high values
This is part of a sample that, as a whole, favours compounds with a hit. Of some 79,000 tested, about 15% had one in any assay. The source made the active and inactive calls. Cut-off read from the data, not from the text of the source: active = growth inhibition above about 70%; inactive = the rest.
# maps each entry to its growth inhibition

{"molecule": "COc1ccc(CC2C(=O)NC(=O)NC2=O)cc1OCc1ccccc1", "growth inhibition": "-17.4% (inactive)"}
{"molecule": "CN1C2CCC1CC(OC(=O)C(O)c1ccccc1)C2 (stereo unspecified)", "growth inhibition": "-35.8% (inactive)"}
{"molecule": "c1ccc(N(c2ccccc2)c2ccccc2)cc1", "growth inhibition": "-10.4% (inactive)"}
{"molecule": "COc1ccc(OC)c(N(CN2C(=O)CCC2C(=O)O)C(C)=O)c1 (stereo unspecified)", "growth inhibition": "-17.7% (inactive)"}
{"molecule": "CC(C)/C(Cl)=N/OC(=O)Nc1cccc(C(F)(F)F)c1", "growth inhibition": "65.5% (inactive)"}
{"molecule": "Cc1nc(-[n+]2nc(-c3ccccc3)nn2-c2ccccc2)sc1C", "growth inhibition": "-26.8% (inactive)"}
